Test description: gradient 5% acetonitrile 3 min, to 50% in 2 min, to 85% in 15 min, held 3 min, 100 µL/min
Protocol conditions: column: Zorbax Extend-C18 2.1 x 50 mm; eluents: water / acetonitrile, 0.1% formic acid
RP-LC retention time vs 900 s: less than gives Criterion met; not less than gives Criterion not met.

                                   molecule     category_label
0  Fc1cccc(-c2nc(-c3cn(Cc4ccccc4)nn3)no2)c1  Criterion not met
1  Cn1cc(C2=CCN(C(=O)NC3CCCC3)CC2)c2cccnc21      Criterion met
2  COc1ccc(-c2nnc(-c3ccc(C)c(S(=O)(=O)N4CCN(C)CC4)c3)o2)cc1OC      Criterion met
3           CCCOc1ccc(S(=O)(=O)n2cccn2)cc1C  Criterion not met
4  COc1ccc(-c2nc(C3CC(=O)N(c4ccccc4)C3)no2)cc1 (centres undefined)  Criterion not met
5  CCOc1ccc(NC(=O)N(Cc2ccc3c(c2)OCO3)C2CCN(CC)CC2)cc1      Criterion met
